Biological target: human receptors NK2 (Homo sapiens, UniProt P21452)
Sequence (P21452 1-398): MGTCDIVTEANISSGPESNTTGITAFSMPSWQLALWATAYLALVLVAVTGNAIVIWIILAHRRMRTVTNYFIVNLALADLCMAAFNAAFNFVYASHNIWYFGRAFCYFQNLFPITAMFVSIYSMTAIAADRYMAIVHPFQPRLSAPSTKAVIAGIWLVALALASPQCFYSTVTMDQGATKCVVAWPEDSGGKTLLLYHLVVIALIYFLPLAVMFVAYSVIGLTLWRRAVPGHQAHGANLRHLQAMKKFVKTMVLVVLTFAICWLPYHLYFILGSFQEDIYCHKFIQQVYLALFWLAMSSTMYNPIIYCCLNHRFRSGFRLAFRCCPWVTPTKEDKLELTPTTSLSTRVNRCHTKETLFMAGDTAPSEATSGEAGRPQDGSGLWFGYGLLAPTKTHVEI
Where a name gives a salt, the structure may show the parent alone.
outcomeMeasure: Ki (nM)
Answer in nM, number only, no unit symbol.

Briefly, Ki measured for CN(Cc1ccccc1)C(=O)C(CC1CCc2ccccc2C1)NC(=O)C1CC(O)CN1C(=O)c1cn(CCCCc2nn[n-]n2)c2ccccc12.[K+] (mixture of isomers) : 1400

Briefly, Ki measured for CN(Cc1ccccc1)C(=O)C(Cc1ccc(Cl)cc1)NC(=O)C1CC(O)CN1C(=O)c1cn(CCCCc2nn[nH]n2)c2ccccc12 (centres unmarked) [Example 9, potassium salt] : 3900

* * *

target: NK3 receptors (Rattus norvegicus); construct: three preparations isolated from smooth muscle were used; from tissue; host or cells: rat portal vein; assay: Isolated smooth muscle: rat portal vein (RatPV), NK3-mediated contraction; assay type: biochemical
Sequence (P16177 whole entry): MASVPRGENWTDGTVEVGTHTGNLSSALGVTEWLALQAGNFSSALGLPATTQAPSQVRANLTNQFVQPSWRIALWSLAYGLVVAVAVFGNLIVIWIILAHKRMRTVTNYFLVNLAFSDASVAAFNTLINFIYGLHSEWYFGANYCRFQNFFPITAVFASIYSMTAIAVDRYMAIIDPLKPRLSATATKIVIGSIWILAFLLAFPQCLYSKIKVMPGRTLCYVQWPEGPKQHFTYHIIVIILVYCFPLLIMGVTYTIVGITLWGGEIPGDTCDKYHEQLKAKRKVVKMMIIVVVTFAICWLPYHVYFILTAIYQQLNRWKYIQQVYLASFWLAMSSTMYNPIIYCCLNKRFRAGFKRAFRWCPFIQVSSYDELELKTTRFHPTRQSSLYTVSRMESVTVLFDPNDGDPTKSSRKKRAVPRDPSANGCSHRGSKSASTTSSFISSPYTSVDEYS
# NK3 (VPR) pA2 listing for each entry below
Form: value (number only, do not type unit).

Record excerpt, results attached:
CN(Cc1ccccc1)C(=O)C(Cc1ccc2ccccc2c1)NC(=O)C1CC(O)CN1C(=O)c1cn(Cc2nn[n-]n2)c2ccccc12.[K+] (stereo not shown) = 5.84
CN(Cc1ccccc1)C(=O)C(CC1CCc2ccccc2C1)NC(=O)C1CC(O)CN1C(=O)c1cn(CCCCc2nn[n-]n2)c2ccccc12.[K+] (mixture of isomers) = 5.87
CN(Cc1ccccc1)C(=O)C(Cc1ccc2c(c1)CCCC2)NC(=O)C1CC(O)CN1C(=O)c1cn(CCCCc2nn[n-]n2)c2ccccc12.[K+] (stereo not shown) = 5.87

Please look at the following compound next.
Briefly, NK3 (VPR) pA2 measured for CN(Cc1ccccc1)C(=O)C(Cc1ccc2ccccc2c1)NC(=O)C1CC(O)CN1C(=O)c1cn(CCCCc2nn[n-]n2)c2ccccc12.[K+] (stereo not shown) : 4.96

* * *

biological target: NK1 receptors (Oryctolagus cuniculus, UniProt G1SEI7); construct: three preparations isolated from smooth muscle were used; from tissue; host or cells: rabbit vena cava; assay: Isolated smooth muscle: rabbit vena cava (RVC), NK1-mediated contraction; type: biochemical
Sequence (G1SEI7 1-407): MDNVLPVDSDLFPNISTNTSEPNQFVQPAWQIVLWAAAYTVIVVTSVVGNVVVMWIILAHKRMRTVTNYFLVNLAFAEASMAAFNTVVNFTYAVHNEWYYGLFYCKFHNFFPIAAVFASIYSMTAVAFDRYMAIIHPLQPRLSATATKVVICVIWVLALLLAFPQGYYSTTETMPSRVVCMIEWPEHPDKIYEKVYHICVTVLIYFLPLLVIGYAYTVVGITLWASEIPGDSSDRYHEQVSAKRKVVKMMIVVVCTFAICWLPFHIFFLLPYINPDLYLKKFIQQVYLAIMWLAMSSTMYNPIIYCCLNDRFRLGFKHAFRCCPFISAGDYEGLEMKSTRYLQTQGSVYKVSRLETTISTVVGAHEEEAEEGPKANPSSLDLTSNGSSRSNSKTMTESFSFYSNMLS
# NK1 (VCL) pA2 listing for each entry below

CN(Cc1ccccc1)C(=O)C(Cc1ccc2ccccc2c1)NC(=O)C1CC(O)CN1C(=O)c1cn(CCCCc2nn[n-]n2)c2ccccc12.[K+] (stereo not drawn) = 9.57

Briefly, NK1 (VCL) pA2 measured for CN(Cc1ccccc1)C(=O)C(Cc1ccc2c(c1)CCCC2)NC(=O)C1CC(O)CN1C(=O)c1cn(CCCCc2nn[n-]n2)c2ccccc12.[K+] (stereo not drawn) : 8.17

Briefly, NK1 (VCL) pA2 measured for CN(Cc1ccccc1)C(=O)C(CC1CCc2ccccc2C1)NC(=O)C1CC(O)CN1C(=O)c1cn(CCCCc2nn[n-]n2)c2ccccc12.[K+] (mixture of isomers) : 7.87

Briefly, NK1 (VCL) pA2 measured for CN(Cc1ccccc1)C(=O)C(Cc1ccc2ccccc2c1)NC(=O)C1CC(O)CN1C(=O)c1cn(CCCc2nn[n-]n2)c2ccccc12.[K+] (stereo not drawn) : 8.46

Briefly, NK1 (VCL) pA2 measured for CN(Cc1ccccc1)C(=O)C(Cc1ccc2ccccc2c1)NC(=O)C1CC(O)CN1C(=O)c1cn(CCCCCc2nn[n-]n2)c2ccccc12.[K+] (stereo not drawn) : 7.88

Briefly, NK1 (VCL) pA2 measured for CN(Cc1ccccc1)C(=O)C(Cc1ccc2ccccc2c1)NC(=O)C1CC(O)CN1C(=O)c1cn(Cc2nn[n-]n2)c2ccccc12.[K+] (stereo not drawn) : 8.14

* * *

# Ki listing for each entry below
target: human receptors NK1 (Homo sapiens); construct: human lymphoblasts IM-9 specifically expressing the NK1 receptor; endogenous in cells; assay: Affinity for the human NK1 receptor on IM-9 lymphoblasts; conditions: human lymphoblasts IM-9 expressing NK1
Answer in nM, number only, no unit symbol.

Record excerpt, results attached:
CN(Cc1ccccc1)C(=O)C(Cc1ccc2ccccc2c1)NC(=O)C1CC(O)CN1C(=O)c1cn(CCCc2nn[n-]n2)c2ccccc12.[K+] (stereo not drawn) [Example 6, potassium salt] = 1.2
CN(Cc1ccccc1)C(=O)C(Cc1ccc2ccccc2c1)NC(=O)C1CC(O)CN1C(=O)c1cn(CCc2nn[nH]n2)c2ccccc12 (stereo not drawn) [Example 5] = 0.63

Please look at the following compound next.
Briefly, Ki measured for CN(Cc1ccccc1)C(=O)C(Cc1cccs1)NC(=O)C1CC(O)CN1C(=O)c1cn(CCCCc2nn[nH]n2)c2ccccc12 (stereo not drawn) [Example 8] : 110

* * *

target: NK2 receptors (Oryctolagus cuniculus, UniProt P79218); construct: three preparations isolated from smooth muscle were used; from tissue; host or cells: endothelium-free rabbit pulmonary artery; test: Isolated smooth muscle: endothelium-free rabbit pulmonary artery (RPA), NK2-mediated contraction; format: biochemical
Sequence (P79218 whole entry): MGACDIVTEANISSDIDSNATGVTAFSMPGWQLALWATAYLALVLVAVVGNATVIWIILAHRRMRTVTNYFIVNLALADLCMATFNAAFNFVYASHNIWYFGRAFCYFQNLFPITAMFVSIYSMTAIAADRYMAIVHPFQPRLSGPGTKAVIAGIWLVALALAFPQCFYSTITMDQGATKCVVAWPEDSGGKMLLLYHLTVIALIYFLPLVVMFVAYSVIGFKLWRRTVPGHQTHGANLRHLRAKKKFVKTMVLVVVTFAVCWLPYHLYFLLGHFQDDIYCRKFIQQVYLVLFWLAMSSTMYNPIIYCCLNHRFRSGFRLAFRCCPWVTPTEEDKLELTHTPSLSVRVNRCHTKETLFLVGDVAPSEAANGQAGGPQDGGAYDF
outcomeMeasure: NK2 (APL) pA2
Form: value (number only, do not type unit).

CN(Cc1ccccc1)C(=O)C(Cc1ccc2c(c1)CCCC2)NC(=O)C1CC(O)CN1C(=O)c1cn(CCCCc2nn[n-]n2)c2ccccc12.[K+] (stereo not shown) [Example 2] = 6.47
CN(Cc1ccccc1)C(=O)C(Cc1ccc2ccccc2c1)NC(=O)C1CC(O)CN1C(=O)c1cn(CCCCc2nn[n-]n2)c2ccccc12.[K+] (stereo not shown) [Example 1] = 5.57
CN(Cc1ccccc1)C(=O)C(Cc1ccc2ccccc2c1)NC(=O)C1CC(O)CN1C(=O)c1cn(CCCc2nn[n-]n2)c2ccccc12.[K+] (stereo not shown) [Example 6] = 5.20

Please look at the following molecule next.
Briefly, NK2 (APL) pA2 measured for CN(Cc1ccccc1)C(=O)C(CC1CCc2ccccc2C1)NC(=O)C1CC(O)CN1C(=O)c1cn(CCCCc2nn[n-]n2)c2ccccc12.[K+] (mixture of isomers) [Example 3] : 5.87

* * *

target: human receptors NK1 (Homo sapiens, UniProt P25103); construct: human lymphoblasts IM-9 specifically expressing the NK1 receptor; endogenous in cells; test: Affinity for the human NK1 receptor on IM-9 lymphoblasts; settings: human lymphoblasts IM-9 expressing NK1
Sequence (P25103 whole entry): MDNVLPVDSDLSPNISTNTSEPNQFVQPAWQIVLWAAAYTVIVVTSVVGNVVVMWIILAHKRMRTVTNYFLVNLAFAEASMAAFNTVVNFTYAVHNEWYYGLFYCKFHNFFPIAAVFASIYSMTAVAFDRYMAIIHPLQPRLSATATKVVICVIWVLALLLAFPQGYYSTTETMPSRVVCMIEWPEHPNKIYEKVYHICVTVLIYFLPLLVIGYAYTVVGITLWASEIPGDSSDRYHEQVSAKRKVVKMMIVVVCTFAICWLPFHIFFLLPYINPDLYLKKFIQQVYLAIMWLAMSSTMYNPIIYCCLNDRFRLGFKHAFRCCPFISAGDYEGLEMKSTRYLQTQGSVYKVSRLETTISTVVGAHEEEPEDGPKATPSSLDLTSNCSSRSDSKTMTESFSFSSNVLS
Where a name gives a salt, the structure may show the parent alone.
With a cut-off of 0.01 µM, any Ki strictly below it is called Met; any Ki meeting it or above is called Not met.

# count of solved cases: 4
CN(Cc1ccccc1)C(=O)C(Cc1ccc2ccccc2c1)NC(=O)C1CC(O)CN1C(=O)c1cn(Cc2nn[n-]n2)c2ccccc12.[K+] (centres unmarked) [Example 4, potassium salt] = Met
CN(Cc1ccccc1)C(=O)C(Cc1ccc(Cl)cc1)NC(=O)C1CC(O)CN1C(=O)c1cn(CCCCc2nn[nH]n2)c2ccccc12 (centres unmarked) [Example 9, potassium salt] = Not met
CN(Cc1ccccc1)C(=O)C(Cc1ccc2c(c1)CCCC2)NC(=O)C1CC(O)CN1C(=O)c1cn(CCCCc2nn[n-]n2)c2ccccc12.[K+] (centres unmarked) = Not met
COc1ccc(CC(NC(=O)C2CC(O)CN2C(=O)c2cn(CCCCc3nn[nH]n3)c3ccccc23)C(=O)N(C)Cc2ccccc2)cc1OC (centres unmarked) [Example 10, potassium salt] = Not met

Now look at this one.
Query string: Would you kindly verify if Ki of CN(Cc1ccccc1)C(=O)C(CC1CCCCC1)NC(=O)C1CC(O)CN1C(=O)c1cn(CCCCc2nn[nH]n2)c2ccccc12 (centres unmarked) [Example 11, potassium salt] is strictly less than 0.01 µM?
Result string: Not met

* * *

Please consider the recorded pKi for UniProtKB P21452 in what follows.
pKi: −log10 of the molar value. Where a name gives a salt, the structure may show the parent alone.

Record excerpt, results attached:
CN(Cc1ccccc1)C(=O)C(Cc1ccc2ccccc2c1)NC(=O)C1CC(O)CN1C(=O)c1cn(Cc2nn[n-]n2)c2ccccc12.[K+] (stereo not drawn) [Example 4, potassium salt] = < 6.00
CN(Cc1ccccc1)C(=O)C(CC1CCCCC1)NC(=O)C1CC(O)CN1C(=O)c1cn(CCCCc2nn[nH]n2)c2ccccc12 (stereo not drawn) [Example 11, potassium salt] = < 6.00

Please look at the following compound next.
Briefly, pKi measured for COc1ccc(CC(NC(=O)C2CC(O)CN2C(=O)c2cn(CCCCc3nn[nH]n3)c3ccccc23)C(=O)N(C)Cc2ccccc2)cc1OC (stereo not drawn) [Example 10, potassium salt] : < 5.00

Where do the numbers come from? From patent US5561113A.
